src = ChEMBL document CHEMBL1268982

- Assay Explanation: Inhibition of gamma-secretase-mediated amyloid beta-40 production
Measure Name: IC50 (nM)

Recorded IC50, per entry:
C[C@@H]1CN(C(=O)OC2([C@H]3COC[C@@H](CC4CC4)N3S(=O)(=O)c3ccc(Cl)cc3)CC2)C[C@H](C)N1CCO ... 11.6
CC(C)[C@@H]1COC[C@H](C2(OC(=O)N3CCNCC3)CC2)N1S(=O)(=O)c1ccc(Cl)cc1 ... 14.5
CC(C)[C@@H]1COC[C@H](C2(OC(=O)N3CC4CCC(C3)N4)CC2)N1S(=O)(=O)c1ccc(Cl)cc1 ... 2
CC(C)[C@@H]1COC[C@H](C2(OC(=O)N3CC4CNCC4C3)CC2)N1S(=O)(=O)c1ccc(Cl)cc1 (some centres not stated) ... 9.3
CC1([C@@H]2COC[C@H](COC(=O)N3CCC(N4CCCCC4)CC3)N2S(=O)(=O)c2ccc(Cl)cc2)CC1 ... 20.4

1. O=C1CC2(CCN(C(=O)OC3([C@H]4COC[C@@H](CC5CC5)N4S(=O)(=O)c4ccc(Cl)cc4)CC3)CC2)N1
2. CC(C)(CO)N1CCN(C(=O)OC2([C@H]3COC[C@@H](CC4CC4)N3S(=O)(=O)c3ccc(Cl)cc3)CC2)CC1
Challenge: Which entry has a larger number for IC50, 1 or 2 ? Return value: the label identifying the chosen record.
Response given: 2
